Here is a set of compounds with reported IC50 for Aldo-keto reductase family 1 member B1 (Homo sapiens, UniProt P15121), compiled from the literature.
readout_type: IC50 (µM)

Look over these answered cases.
cpd_smiles | IC50 [µM]
Cc1c(CC(=O)O)csc1Cc1nc2c(F)c(F)cc(F)c2s1 | 0.031
O=C(O)Cn1c2c(c3cc(Br)ccc31)CCN(Cc1ccccc1)C2=S | 6.2
O=C(O)Cn1c2c(c3cc(Cl)ccc31)CCN(Cc1ccccc1)C2=S | 5
CC(C)=CCCC1=C[C@H](c2cc(O)ccc2O)OC1=O | 12.6
COc1ccc2c(c1)c1c(n2CC(=O)O)C(=S)N(Cc2ccccc2)CC1 | 5.7
O=C(O)Cn1c2c(c3c4c(ccc31)CCCC4)CCSC2=O | 1

A. O=C(O)Cc1nn(Cc2nc3cc(Cl)ccc3s2)c(=O)c2cscc12
B. Cc1ccc2c(c1)c1c(n2CC(=O)O)C(=O)SCC1
C. O=C(O)Cn1c2c(c3cc(F)ccc31)CCN(Cc1ccccc1)C2=O
INPUT: Number of compounds to sort: 3. Sort criterion: IC50, ascending. Give the labels in the order specified.
OUTPUT: A, B, C
(A: 0.035 µM, B: 1.6 µM, C: 51.5 µM)

---

From various publications: pIC50 for UniProt P15121.
pIC50: −log10 of the molar value.
readout_type: pIC50

Field: example entries. Status: answers known.
molecule | pIC50
CCc1ccc([C@H]2C=C(CC/C=C(\C)CCC=C(C)C)C(=O)O2)cc1 | 4.23
O=C(O)Cc1nn(Cc2nc3cc(F)ccc3s2)c(=O)c2cscc12 | 7.22
COCOc1ccccc1[C@H]1C=C(CC/C=C(\C)CCC=C(C)C)C(=O)O1 | 4.42
O=C(O)COc1ccc2c(c1)c1c(n2CC(=O)O)C(=S)N(Cc2ccccc2)CC1 | 5.59
COc1ccc(OC)c([C@H]2C=C(CC/C=C(\C)CCC=C(C)C)C(=O)O2)c1 | 4.58
CC(C)=CCC/C(C)=C/CCC1=C[C@H](c2ccc(C(C)(C)C)cc2)OC1=O | 5.85
O=C(O)Cn1c2c(c3ccccc31)CCN(CC1CCCCC1)C2=S | 5.14
O=C(O)Cn1c2c(c3ccccc31)CCN(C(=O)c1ccc(F)cc1F)C2=O | 4.34

A. O=C(O)Cn1c2c(c3cc(Cc4ccccc4)ccc31)CCSC2=O
B. CC(C)=CCC/C(C)=C/CCC1=C[C@H](c2cc(F)c(F)c(F)c2)OC1=O
INPUT: Form: Entry with minimum pIC50 (choose one): A / B API: response body contains the label of the selected item.
OUTPUT: B

---

Here, compounds appear alongside pIC50 reported for Aldo-keto reductase family 1 member B1 (Homo sapiens, UniProt P15121) in the literature.
pIC50: −log10 of the molar value.
readout_type: pIC50

Answered examples (5):
compound | target | pIC50
CC(C)=CCC/C(C)=C/CCC1=C[C@@H](c2ccc(C(C)C)cc2)OC1=O | Aldo-keto reductase family 1 member B1 (Homo sapiens, UniProt P15121) | 4.03
O=C1NC(=O)C2(N1)c1ccccc1-c1ccc(F)cc12 (racemic) | Aldo-keto reductase family 1 member B1 (Homo sapiens, UniProt P15121) | 7.04
COc1ccc(C(=O)N2CCc3c(n(CC(=O)O)c4ccccc34)C2=O)cc1 | Aldo-keto reductase family 1 member B1 (Homo sapiens, UniProt P15121) | 4.45
Cc1cc(C)c2c3c(n(CC(=O)O)c2c1)C(=O)SCC3 | Aldo-keto reductase family 1 member B1 (Homo sapiens, UniProt P15121) | 5.23
O=C(O)Cn1c2c(c3ccccc31)CCN(C(=O)c1ccc(Br)cc1)C2=O | Aldo-keto reductase family 1 member B1 (Homo sapiens, UniProt P15121) | 4.46

P. O=C(O)Cn1c2c(c3ccccc31)CCN(C(=O)c1ccc(F)cc1)C2=O
Q. O=C(O)Cn1c2c(c3cc(O)ccc31)CCN(Cc1ccccc1)C2=S
R. CC(C)=CCC/C(C)=C/CCC1=C[C@H](c2ccccc2[N+](=O)[O-])OC1=O
S. Cc1ccc2c(Cc3nc4c(F)c(F)cc(F)c4s3)cn(CC(=O)O)c2n1
INPUT: Let's sort these by pIC50, smallest first. Go ahead? Answer with the labels in sequence, matching the requested order.
OUTPUT: P, R, Q, S

---

Collected set of IC50 measured with UniProt P15121 across studies.
readout_type: IC50 (µM)

Reference set, count: 4
cpd_smiles | readout_type | reported_measurement
CC(C)=CCC/C(C)=C/CCC1=C[C@@H](c2cc(F)c(F)c(F)c2)OC1=O | IC50 | 53.4
O=C(O)Cc1ccsc1Cc1nc2c(F)c(F)cc(F)c2s1 | IC50 | 0.024
O=C(O)Cc1ccc(Cc2nc3c(F)c(F)cc(F)c3s2)s1 | IC50 | 0.027
O=C(O)Cn1c2c(c3cc(Cl)ccc31)CCOC2=O | IC50 | 12.4

A. O=C(O)Cn1c2c(c3c(F)cc(F)cc31)CCN(Cc1ccc(Br)cc1F)C2=S
B. CC(C)=CCC/C(C)=C/CCC1=C[C@H](c2ccc([N+](=O)[O-])cc2)OC1=O
INPUT: // compare measured IC50, left A , right B , return larger // respond with label for picked entry
OUTPUT: A
